# method: Enzymatic hydrolysis of beta blockers by dog aqueous humor (procedure C)
# Format: in vitro ADME
# studyConditions: 1 hr, 37° C., read-out: Percent drug remaining, dog aqueous humor, 1 HR
Structures can show the parent of a compound that is named as a salt.
readoutName: remaining at 1 h (%)
Field format: number, assumed %, no unit text.

Example molecules with recorded remaining at 1 h:
{"molecule": "CC(C)(CNC(=O)N1CCOCC1)NCC(O)COC(=O)c1ccccc1F (stereo not drawn) [Example II, Hydrochloride]", "valueObserved": 58}
{"molecule": "CC(C)(CNC(=O)Cc1ccccc1)NCC(O)COC(=O)c1ccccc1F (stereo not drawn) [Example VII, Hydrochloride]", "valueObserved": 69}
{"molecule": "CCOC(=O)NCC(C)(C)NCC(O)COC(=O)c1ccccc1F (stereo not drawn) [IX, Hydrochloride]", "valueObserved": 0}
{"molecule": "CC(C)(CNC(N)=O)NCC(O)COC(=O)c1ccccc1F (stereo not drawn) [Example X]", "valueObserved": 0}
{"molecule": "CC(=O)NCC(C)(C)NCC(O)COC(=O)c1ccccc1F (stereo not drawn) [IV]", "valueObserved": 87}

Would you mind telling me what remaining at 1 h value was observed for CC(C)C(=O)NCC(C)(C)NCC(O)COC(=O)c1ccccc1F (stereo not drawn) [Example V, Oxalate Monohydrate] ? 75

---

# Test system: beta adrenergic receptor (heart rate response to isoproterenol)
# method: Duration and potency of beta-blocking action in vivo, 3-hour infusion in pentobarbital-anesthetized dogs
# Design: species or system dog
# studyConditions: Table II; after termination of 3-hour infusion
Counter-ions that a name gives are not always drawn.
readoutName: Recovery Time 50%
Remember to quote the unit after the number.

Use the examples below as a reference point.
{"molecule": "CC(C)(CNC(=O)C1CCCCC1)NCC(O)COC(=O)c1ccccc1F (centres unmarked)", "readoutName": "Recovery Time 50%", "valueObserved": "8 ± 3 min"}
{"molecule": "CC(C)C(=O)NCC(C)(C)NCC(O)COC(=O)c1ccccc1F (centres unmarked) [Example V, Oxalate Monohydrate]", "readoutName": "Recovery Time 50%", "valueObserved": "10 ± 2 min"}
{"molecule": "CC(=O)NCC(C)(C)NCC(O)COC(=O)c1ccccc1F (centres unmarked)", "readoutName": "Recovery Time 50%", "valueObserved": "7 min"}
{"molecule": "CC(C)(CNC(=O)Cc1ccccc1)NCC(O)COC(=O)c1ccccc1F (centres unmarked) [Example VII, Hydrochloride]", "readoutName": "Recovery Time 50%", "valueObserved": "8 min"}

Next item in the queue.
Item under review: CCOC(=O)NCC(C)(C)NCC(O)COC(=O)c1ccccc1F (centres unmarked) [IX, Hydrochloride] . Reported Recovery Time 50%? 3 ± 1 min

---

# method: Half-lives of beta blockers in dog liver homogenate (procedure D)
# Type: in vitro ADME
# studyConditions: 33% (w/v) homogenate, 37° C., read-out: T1/2 dog liver homogenate
Where a name gives a salt, the structure may show the parent alone.
readoutName: half-life (min)
# number only, unit min dropped from output

A selection of reference data follows.
{"compound": "CC(C)(CNC(=O)Cc1ccccc1)NCC(O)COC(=O)c1ccccc1F (stereo not shown) [Example VII, Hydrochloride]", "half-life (min)": 25}
{"compound": "CC(C)(CNC(N)=O)NCC(O)COC(=O)c1ccccc1F (stereo not shown) [Example X]", "half-life (min)": 2.5}
{"compound": "CC(C)C(=O)NCC(C)(C)NCC(O)COC(=O)c1ccccc1F (stereo not shown) [Example V, Oxalate Monohydrate]", "half-life (min)": 3.5}

Read the next record carefully.
# lookup: half-life of CCOC(=O)NCC(C)(C)NCC(O)COC(=O)c1ccccc1F (stereo not shown) [IX, Hydrochloride] 1
